Each record here notes measured half-life at 0.2 mg/ml.
# procedure.details: Stability in aqueous media (PBS pH 7.4)
# Format: physicochemical
# Set-up: unit not given here
# measurement.setup: phosphate buffer solution (PBS); PBS pH 7.4, 37° C., samples at T=0, 4, 24, 96 h; read-out: Stability grading (t1/2)
# Source text: LC/MS data was collected for compound identity.
Non-standard residues stand in square brackets, D forms with d. Residues, ends and D or L forms follow the SMILES beside them. dHis(τ-Bn) = N[C@H](Cc1cn(Cc2ccccc2)cn1)C(=O)O; pGlu = O=C1CC[C@@H](C(=O)O)N1
recorded.metric: half-life at 0.2 mg/ml

compound="CCNC(=O)[C@@H]1CCCN1C(=O)[C@H](Cc1ccc(O)cc1)NC(=O)[C@H](CC(C)C)NC(=O)[C@@H](Cc1cn(Cc2ccccc2)cn1)NC(=O)[C@H](Cc1ccc(O)cc1)NC(=O)[C@H](CO)NC(=O)[C@H](Cc1c[nH]c2ccccc12)NC(=O)[C@H](Cc1c[nH]cn1)NC(=O)[C@@H]1CCC(=O)N1 [Compound 59] ([pGlu]HWSY[dHis(τ-Bn)]LYP-NHEt)" recorded_metric="half-life at 0.2 mg/ml" observed_measurement="< 96"
compound="CC(C)C[C@H](NC(=O)[C@@H](Cc1c[nH]c2ccccc12)NC(=O)[C@H](Cc1c[nH]cn1)NC(=O)[C@H](CO)NC(=O)[C@H](Cc1c[nH]c2ccccc12)NC(=O)[C@H](Cc1c[nH]cn1)NC(=O)[C@@H]1CCC(=O)N1)C(=O)N[C@@H](CCCNC(=N)N)C(=O)N1CCC[C@H]1C(=O)NCC(N)=O [Compound 68] ([pGlu]HWSH[dW]LRPG-NH2)" recorded_metric="half-life at 0.2 mg/ml" observed_measurement="> 96"
